Molecular target: human CB1 receptor (Homo sapiens)
Sequence (P21554 whole entry): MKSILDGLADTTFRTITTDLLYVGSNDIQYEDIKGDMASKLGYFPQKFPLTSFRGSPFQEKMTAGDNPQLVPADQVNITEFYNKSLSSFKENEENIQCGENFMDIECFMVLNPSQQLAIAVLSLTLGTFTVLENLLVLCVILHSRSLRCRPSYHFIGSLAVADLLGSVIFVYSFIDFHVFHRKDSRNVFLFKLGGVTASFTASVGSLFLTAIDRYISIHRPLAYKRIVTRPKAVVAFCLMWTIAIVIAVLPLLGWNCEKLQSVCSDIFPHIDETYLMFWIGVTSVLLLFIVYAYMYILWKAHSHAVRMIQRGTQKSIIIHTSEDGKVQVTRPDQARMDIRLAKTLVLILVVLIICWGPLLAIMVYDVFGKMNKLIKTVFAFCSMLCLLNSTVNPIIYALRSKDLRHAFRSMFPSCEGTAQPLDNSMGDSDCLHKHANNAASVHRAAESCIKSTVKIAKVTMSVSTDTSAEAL
Please provide measured Ki for the entries that follow.
Use nM as the unit, but write only the number.

Q) Entry under review: CC(C)(C)[C@H](NC(=O)n1c(=O)n(CC2CCOCC2)c2ccccc21)C(N)=O [Example 132] . Reported Ki?
A) 3.4

Q) Now consider CC(C)(C)[C@H](NC(=O)n1c(=O)n(CC2CCCCO2)c2ccccc21)C(N)=O (some centres unmarked) [Example 224] and answer again.
A) 29.9

Q) Again, but for CCCCCn1c(=O)n(C(=O)N[C@H]2CCCC[C@@H]2O)c2ccccc21 [Example 193]
A) 67.4

Q) And what about the compound Cc1cc(CNC(=O)n2c(=O)n(CC3CCOCC3)c3ccccc32)c(C)o1 [Example 311] ?
A) 2.03

Q) Same for Cc1ccc2c(c1)n(CC1CCCCC1)c(=O)n2C(=O)N[C@H](CC(C)C)C(N)=O [Example 267]
A) 18.4

Q) Now give it for O=C(N[C@H]1CCCc2ccccc21)n1c(=O)n(CC2CCCCC2)c2ccccc21 [Example 197] too.
A) 0.78

Q) Item: Cc1ccc2c(c1)n(CC1CCCCC1)c(=O)n2C(=O)N[C@H](C(N)=O)C1CCCCC1 [Example 273]
A) 57.5

Q) Please answer likewise for CC(C)(C)[C@H](NC(=O)n1c(=O)n(CC2CCC(F)(F)CC2)c2ccccc21)C(N)=O [Example 306]
A) 0.31

Q) Subsequent entry: CN(C)CC(C)(C)CNC(=O)n1c(=O)n(CC2CCCCC2)c2ccccc21 [Example 182]
A) 17

Q) Param item: CC(C)(C)[C@H](NC(=O)n1c(=O)n(CC2CCCCC2)c2c(F)cccc21)C(N)=O [Example 172]
A) 0.77

Q) Please answer likewise for CC(C)(C)[C@H](NC(=O)n1c(=O)n(CC2CCCCC2)c2cccc(F)c21)C(N)=O [Example 271]
A) 1.28

Q) Cool, now CC(C)(C)[C@H](NC(=O)n1c(=O)n(Cc2ccccc2)c2ccccc21)C(=O)NCCCO [Example 361]
A) 24.7

Q) Moving on to Cc1cccc2c1n(CC1CCCCC1)c(=O)n2C(=O)N[C@H](C(N)=O)C(C)(C)C [Example 174]
A) 0.32

Q) Thanks! And Cc1nc(C)c(CNC(=O)n2c(=O)n(CC3CCOCC3)c3ccccc32)s1 [Example 337] ?
A) 12.1

Q) Same question, CC(C)(C)[C@H](NC(=O)n1c(=O)n(CC2CCOCC2)c2ccccc21)C(=O)NCCCO [Example 318] this time
A) 23.9

Q) Next: CC(C)(C)[C@H](NC(=O)n1c(=O)n(CC2CCC2)c2ccccc21)C(N)=O [Example 201]
A) 4.94

Q) Try Cc1nc(C(F)(F)F)c(CNC(=O)n2c(=O)n(CC3CCOCC3)c3ccccc32)s1 [Example 349] next.
A) 19.1

Q) Would you kindly repeat that for Cc1ccc2c(c1)n(CC1CCCCC1)c(=O)n2C(=O)N[C@@H](Cc1ccccc1)C(N)=O [Example 268] ?
A) 130

Q) Field entry: CC(C)(C)[C@H](NC(=O)n1c(=O)n(CC2CCOCC2)c2ccccc21)c1nnc(N)o1 [Example 319]
A) 5.17

Q) Now give it for CC(C)(C)[C@H](NC(=O)n1c(=O)n(CCC(F)(F)F)c2ccccc21)C(N)=O [Example 227] too.
A) 10.2

Q) Quick one: CC(C)(C)[C@H](NC(=O)n1c(=O)n(CC2CCCCC2)c2cc(Cl)ccc21)C(N)=O [Example 170]
A) 0.28

Q) // repeat for O=C(N[C@H]1CCCC[C@@H]1O)n1c(=O)n(CC2CCCCC2)c2ccccc21 [Example 191] and report
A) 10.5

Q) Also check CCCCCn1c(=O)n(C(=O)N[C@H]2c3ccccc3C[C@H]2O)c2ccccc21 [Example 190]
A) 8.09

Q) Then CCCCn1c(=O)n(C(=O)N[C@H](C(N)=O)C(C)(C)C)c2ccccc21 [Example 292] ?
A) 2.09

Q) Next up: O=C(N[C@H]1c2ccccc2C[C@H]1O)n1c(=O)n(CC2CCOCC2)c2ccccc21 [Example 280]
A) 31

Q) Okay, and CC(C)(C)[C@H](NC(=O)n1c(=O)n(CC2CCOCC2)c2cc(F)ccc21)C(=O)NCCCO [Example 355] ?
A) 6.72

Q) Queued: Cc1ccc2c(c1)n(CC1CCCCC1)c(=O)n2C(=O)N[C@H](C(N)=O)C(C)C [Example 269]
A) 2.95

Q) And CCc1nc(CNC(=O)n2c(=O)n(CC3CCOCC3)c3ccccc32)cs1 [Example 328] ?
A) 5.94

Q) // query: CC(C)(C)[C@H](NC(=O)n1c(=O)n(CC2CCOCC2)c2cc(F)ccc21)C(N)=O [Example 290]
A) 19.2

Q) Can you check Cc1ccc2c(c1)n(C(=O)N[C@H](C(N)=O)C(C)(C)C)c(=O)n2CC1CCCCC1 [Example 167] next?
A) 2.66

Q) Param item: CC(C)(C)[C@H](NC(=O)n1c(=O)n(Cc2ccccc2)c2ccccc21)C(N)=O [Example 348]
A) 5.64

Q) Next compound up: CC(C)(C)[C@H](NC(=O)n1c(=O)n(CCCC(F)(F)F)c2ccccc21)C(N)=O [Example 293]
A) 1.45
